protocolNotes: Biodistribution (γ-counter)
Assay type: in vivo, BALB/C nude mice
experimentalParameters: male, BALB/C nude, mouse, tumor and muscle, iv, total radioactivity; 90 min p.i.; mean ± SD, n = 3; read-out: Tumor/Muscle ratio
Peptide text beside a SMILES is read from it. * marks the point of attachment. NOTA = O=C(O)CN1CCN(CC(=O)O)CCN(CC(=O)*)CC1; AEEEA = NCCOCCOCCOCC(=O)O
measuredParameter: tissue to tissue ratio at 1.5 h

Ask | Param item = CC[C@H](C)[C@H](NC(=O)[C@H](CCCNC(=N)N)NC(=O)CNC(=O)[C@H](CCC(=O)O)NC(=O)[C@H](CC(N)=O)NC(=O)[C@H](Cc1ccc(O)cc1)NC(=O)[C@H](CCCNC(=N)N)NC(=O)[C@H](Cc1ccc(O)cc1)NC(=O)[C@H](Cc1c[nH]cn1)NC(=O)COCCOCCOCCNC(=O)CN1CCN(CC(=O)O)CCN(CC(=O)O)CC1)C(=O)N[C@@H](CCCNC(=N)N)C(=O)N[C@@H](CC(N)=O)C(=O)O [[^68Ga]Ga-HN11-1, metal not drawn] ({NOTA-AEEEA}-HYRYNEGRIRN-OH) ; retrieve measured tissue to tissue ratio at 1.5 h.
Reply | 2.66

Source of measurements: paper PMC11528066
